- test.protocol: Permeability in Caco-2 cells
- Format: in vitro ADME
- assay.context: human, apical to basolateral, read-out: Caco-2 PappA-B
observation.type: Papp A→B at 2 h, 10 μmol/L
Please answer in the form of a number followed by its unit of measurement.

In plain terms, `Cc1c(-c2ccnc(C(F)(F)F)c2)ncn1CC(=O)Nc1ccc(-c2cnccn2)cn1` has a documented Papp A→B at 2 h, 10 μmol/L of 23.6 ×10⁻⁶ cm/s

====

- test.protocol: Aqueous solubility
- Assay type: physicochemical
- assay.context: pH 7.4 buffer, 25°C
observation.type: solubility at 24 h (µM)
Numbers only; they are read as µM.

In plain terms, Cc1c(-c2ccnc(C(F)(F)F)c2)ncn1CC(=O)Nc1ccc(-c2cnccn2)cn1 [RXC004] has a documented solubility at 24 h of 56

====

- test.protocol: In vivo pharmacokinetics
- Set-up: species or system rat (male Sprague Dawley)
- assay.context: male, Sprague Dawley, in vivo; rat, dose i.v./p.o. 2/5 mg/kg; read-out: T½ (converted)
observation.type: half-life (min)
Numbers only; they are read as min.

In plain terms, `Cc1c(-c2ccnc(C(F)(F)F)c2)ncn1CC(=O)Nc1ccc(-c2cnccn2)cn1` has a documented half-life of 150

====

- test.protocol: pKa by fast UV (spectrometric) technique
- Format: physicochemical
- assay.context: methanol-water mixture, 25°C; read-out: pKa (most basic)
- Procedure: pKas were determined using the fast UV (spectrometric) technique. Samples were titrated under methanol-water mixture between pH2.0 and pH12.0 at 30–15 μmol/L at 25°C. The ionic strength was 0.192 mol/L (KCl). Aqueous pKas were determined per Yasuda-Shedlovsky ([17]).
observation.type: pKa
Answer using only a numeral; do not append any unit.

In plain terms, `Cc1c(-c2ccnc(C(F)(F)F)c2)ncn1CC(=O)Nc1ccc(-c2cnccn2)cn1` has a documented pKa of 3.8

====

- test.protocol: In vivo pharmacokinetics
- Set-up: species or system rat (male Sprague Dawley)
- assay.context: male, Sprague Dawley, in vivo, po; rat, 5 mg/kg p.o.
observation.type: AUC(0-inf) (µM·h)
Numbers only; they are read as µM·h.

In plain terms, Cc1c(-c2ccnc(C(F)(F)F)c2)ncn1CC(=O)Nc1ccc(-c2cnccn2)cn1 [RXC004] has a documented AUC(0-inf) of 10.5

====

- test.protocol: Lipophilicity (logD7.4)
- Format: physicochemical
- assay.context: octanol/phosphate buffer, pH 7.4, pH 7.4, octanol/phosphate buffer; read-out: Measured log D7.4
- Experimental: Lipophilicity (logD7.4): A total of 30 μL of a 20 mmol/L stock solution of RXC004 was added to a vial containing 1.5 mL of pH7.4 phosphate buffer saturated octanol and 1.5 mL of octanol-saturated pH7.4 phosphate buffer, shaken and centrifuged to ensure phase separation. logD7.4 was calculated as the logarithm of the ratio of the concentration of RXC004 (measured by LC-UV in octanol vs. buffer phase).
observation.type: logD

In plain terms, Cc1c(-c2ccnc(C(F)(F)F)c2)ncn1CC(=O)Nc1ccc(-c2cnccn2)cn1 [RXC004] has a documented logD of 2.4

====

- test.protocol: In vivo pharmacokinetics
- Parameters: species or system rat (male Sprague Dawley)
- assay.context: male, Sprague Dawley, in vivo, intravenous, 2 mg/kg; rat, dose i.v./p.o. 2/5 mg/kg
observation.type: clearance (mL/min/kg)
Numbers only; they are read as mL/min/kg.

In plain terms, `Cc1c(-c2ccnc(C(F)(F)F)c2)ncn1CC(=O)Nc1ccc(-c2cnccn2)cn1` has a documented clearance of 5.8
